Recorded T/C values for a group of compounds are listed next.
Test system: L1210 leukemia ip in BDF1 mice, survival T/C
Assay: NCI In Vivo Anticancer Drug Screen. Data for tumor model L1210 Leukemia (intraperitoneal) in B6D2F1 (BDF1) mice
Conditions: endpoint: mean survival time; dose: 100.0 mg/kg/injection; schedule: Q01DX009 (ip); vehicle: water; higher = longer survival
Toxic doses and inconclusive results are not listed.

Use the examples below as a reference point.
[
  {
    "given smiles": "COC(=O)/C=C/c1c[nH]c2nccnc12",
    "T/C": "98 % of control"
  },
  {
    "given smiles": "CN(C)Cc1ccc(C(C)(C)C)cc1",
    "T/C": "95 % of control"
  },
  {
    "given smiles": "O=c1[nH]c2ccccc2c(=O)n1C1CCCCC1",
    "T/C": "103 % of control"
  }
]

Reported T/C for O=C1c2c(O)cccc2C(Br)c2cccc(O)c21 was 103 % of control

* * *

Tested on: L1210 leukemia ip in BDF1 mice, survival T/C
Experiment: NCI In Vivo Anticancer Drug Screen. Data for tumor model L1210 Leukemia (intraperitoneal) in B6D2F1 (BDF1) mice
Settings: endpoint: mean survival time; dose: 12.5 mg/kg/injection; schedule: Q01DX009 (ip); vehicle: saline with Tween-80; higher = longer survival
Toxic doses and inconclusive results are not listed.
Each entry below carries its reported T/C.

Worked cases, T/C given:
[
  {
    "given smiles": "C[N+](C)(CC(=O)Nc1cccc(C(F)(F)F)c1)CC(=O)Nc1cccc(C(F)(F)F)c1",
    "reported": "88 % of control"
  },
  {
    "given smiles": "CCOC(O)(C(F)(F)F)C(F)(F)F",
    "reported": "96 % of control"
  }
]

Noted for O=C(O)c1ccc(CBr)cc1CBr : its T/C reads 101 % of control

// field: T/C; key: CC(=O)Nc1cccc2cccnc12 ; value = 92 % of control

Given item c1ccc2c(c1)ccc1cc3cc(NCCCCNc4ccc5nc6c(ccc7ccccc76)cc5c4)ccc3nc12 , the value recorded as its T/C is 87 % of control

* * *

Test system: L1210 leukemia ip in BDF1 mice, survival T/C
Test: NCI In Vivo Anticancer Drug Screen. Data for tumor model L1210 Leukemia (intraperitoneal) in B6D2F1 (BDF1) mice
Settings: endpoint: mean survival time; dose: 100.0 mg/kg/injection; schedule: Q04DX003 (ip); vehicle: Klucel (hydroxypropylcellulose) (HPC); higher = longer survival
Inconclusive results and toxic doses are left out.
// reported T/C for each item listed

Example entries and their recorded answers appear below.
[
  {
    "given smiles": "c1ccc(-c2nc3cnccc3o2)cc1",
    "T/C": "106 % of control"
  },
  {
    "given smiles": "O=C(COc1ccccc1)NCCO",
    "T/C": "100 % of control"
  },
  {
    "given smiles": "O=C1CN=C(c2ccccn2)c2cc(Br)ccc2N1",
    "T/C": "101 % of control"
  }
]

Now for another entry.
Documented T/C of Cn1cc([N+](=O)[O-])cnc1=O : 100 % of control

* * *

Reported T/C values are given for each entry in this list.
Tested on: L1210 leukemia ip in BDF1 mice, survival T/C
Assay: NCI In Vivo Anticancer Drug Screen. Data for tumor model L1210 Leukemia (intraperitoneal) in B6D2F1 (BDF1) mice
Details: endpoint: mean survival time; dose: 100.0 mg/kg/injection; schedule: Q01DX009 (ip); vehicle: other; higher = longer survival
Toxic doses and inconclusive results are not listed.

Examples from the recorded data:
[
  {
    "compound": "O=[N+]([O-])c1ccc(F)c(Cl)c1",
    "tested on": "L1210 leukemia ip in BDF1 mice, survival T/C",
    "T/C": "98 % of control"
  },
  {
    "compound": "CCCCOP(=O)(OCCCC)Oc1ccc2ccccc2c1",
    "tested on": "L1210 leukemia ip in BDF1 mice, survival T/C",
    "T/C": "94 % of control"
  },
  {
    "compound": "O=C1OCCC1C(=O)C(O)(C(F)(F)F)C(F)(F)F (stereo unspecified)",
    "tested on": "L1210 leukemia ip in BDF1 mice, survival T/C",
    "T/C": "96 % of control"
  }
]

Measured T/C, CCN(Cc1ccccc1)C(=O)Nc1cccc(Cl)c1 : 106 % of control

Noted for Cn1ncn(/N=C/c2ccc([N+](=O)[O-])o2)c1=O : its T/C reads 87 % of control

Recorded result, CS(=O)(=O)N(CC(=O)O)Cc1ccc(F)cc1 , T/C: 103 % of control
